Attribute: OD490
biological target: T1, M7-2; assay: scFv-phage ELISA
T1 construct: also called PD1 mutant M7-2
I only need the number, thanks.

Examples from the recorded data:
PD1-45D6 (antibody, V domains shown, scFv-phage in the screening ELISA; whole IgG in the other assays) VH: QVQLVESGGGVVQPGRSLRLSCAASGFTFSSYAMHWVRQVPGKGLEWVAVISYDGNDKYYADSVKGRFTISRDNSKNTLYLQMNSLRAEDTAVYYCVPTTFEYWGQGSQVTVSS VL: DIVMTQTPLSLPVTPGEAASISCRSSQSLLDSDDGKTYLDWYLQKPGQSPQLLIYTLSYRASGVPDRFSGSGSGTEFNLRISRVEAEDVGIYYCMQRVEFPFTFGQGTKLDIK | 4
PD1-45F1 (antibody, V domains shown, scFv-phage in the screening ELISA; later whole IgG) VH: QVQLVQSGAEVKKPGASVKLSCKASGYTFNSYYVHWVRQAPGQGLEWMGIINPSDGSATYAQKFQGRVTMTSDTSTSSVYMELSSLRSEDTAVYYCARDGNYYDSRGYYYDTFDMWGQGTLITVSS VL: SYELTQDPAVSVALGQTVRITCQGDSLRTYYASWYQQKPGQAPILVIYGKNNRPSGIPDRFSGSSSGNTASLTITAAQAEDEADYYCNSRDSSGKSLVFGGGTKLTVL | 3.9

Below: the item to evaluate.
Name the reported OD490 value associated with the binder PD1-48A9 (antibody, V domains shown, scFv-phage in the screening ELISA; whole IgG in the other assays) VH: QMQLVQSGAEVKKPGSSVKVSCKASGDTFTRYIINWVRQAPGQGLEWMGRVIPTLGLTTYAQNFQDTVTIIADKSTNTAYMELKNLRSEDTAVYYCARGYGSGAFDIWGQGTMITVSS VL: DIVMTQTPLSLPVTPGEPASISCRSSQSLLDSHDGNTYLDWYLQKPGQSPQLLIYTLSHRASGVPDRFSGSGSGTDFTLKISRVEAEDVGLYYCMQRIDFPYTFGQGTKVEIK
0.4
